# System: Plasmodium yoelii
# EXPERIMENTAL DETAILS: Antimalarial activity against chloroquine-resistant Plasmodium yoelii N-67 infected in Swiss mouse assessed as mean survival time at 50 mg/kg, ip qd for 4 days
# Format: functional
# TEST SETTINGS: route intraperitoneal
MEASURED PARAMETER: MST (days)
Report the value in days with no unit label.

Some solved cases for reference:
Given the entry Clc1ccc2c(Nc3ccc(NC(c4ccc(Br)cc4)c4nnnn4C4CCCCC4)cc3)ccnc2c1 (stereo not given) , what MST was observed with Plasmodium yoelii? 12.6

Given the entry Clc1ccc(C(Nc2ccc(Nc3ccnc4cc(Cl)ccc34)cc2)c2nnnn2C2CCCCC2)cc1 (stereo not given) , what MST was observed with Plasmodium yoelii? 10.4

Given the entry CC(C)(C)n1nnnc1C(Nc1ccc(Nc2ccnc3cc(Cl)ccc23)cc1)c1ccc(Br)cc1 (stereo not given) , what MST was observed with Plasmodium yoelii? 26

Given the entry CC(C)(C)n1nnnc1C(Nc1ccc(Nc2ccnc3cc(Cl)ccc23)cc1)c1cccc2ccccc12 (stereo not given) , what MST was observed with Plasmodium yoelii? 12

More entries:
Given the entry COc1ccc(C(Nc2ccc(Nc3ccnc4cc(Cl)ccc34)cc2)c2nnnn2C(C)(C)C)cc1OC (stereo not given) , what MST was observed with Plasmodium yoelii? 9.8
